- Tested System: T1, CRBN, Q96SW2;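 note: pooled lentiviral library of zinc finger degron-EGFP fusions in mCherry-positive Jurkat cells, FACS-sorted after compound exposure, with degron abundance counted by next-generation sequencing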
- T1 chain: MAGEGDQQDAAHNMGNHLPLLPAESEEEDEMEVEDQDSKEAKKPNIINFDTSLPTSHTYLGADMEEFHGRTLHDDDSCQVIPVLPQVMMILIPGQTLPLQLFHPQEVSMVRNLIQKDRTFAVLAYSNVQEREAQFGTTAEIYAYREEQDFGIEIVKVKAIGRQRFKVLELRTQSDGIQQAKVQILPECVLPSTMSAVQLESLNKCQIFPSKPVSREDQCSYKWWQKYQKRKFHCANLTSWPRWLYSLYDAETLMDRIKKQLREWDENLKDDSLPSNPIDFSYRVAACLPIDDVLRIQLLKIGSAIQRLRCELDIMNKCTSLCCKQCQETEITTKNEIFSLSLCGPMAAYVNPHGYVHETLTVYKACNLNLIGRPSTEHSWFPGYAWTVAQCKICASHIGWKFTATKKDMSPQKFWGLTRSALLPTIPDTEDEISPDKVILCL
- Assay Overview: log2 fold change of degron read counts, EGFP-low vs EGFP+ sorted cells (limma voom), compound-induced degradation; higher = more compound-induced degradation of the degron-EGFP fusion; degrons are variants of IKZF1/3 zinc finger 2; compound dose not given here
- Experimental Parameters: Jurkat; 18 h; compound: thalidomide
In all, about 8,300 sequences were measured (“log2 fold change of degron read counts, EGFP-low vs EGFP+ sorted cells (limma voom), compound-induced degradation”: median about -1.1, highest 2% from about 3.2 on). Many of the other results were omitted from the sample, so the highest values are more common in it than they were.
Quantity Name: log2 fold change of degron read counts

>  <Macromolecule Sequence>
LHCPICGFYCTQKGNLLRHIKL [46L_47H_49P_50I_52G_53F_54Y_55C_67L_, Q9UKT9]

>  <Value>
2.7

$$$$
>  <Macromolecule Sequence>
LACPICGFYCTQKGNLLRHIKL [46L_47A_49P_50I_52G_53F_54Y_55C_67L_, Q9UKT9]

>  <Value>
2.89

$$$$
>  <Macromolecule Sequence>
LWCPICGFYCTQKGNLLRHIKL [46L_47W_49P_50I_52G_53F_54Y_55C_67L_, Q9UKT9]

>  <Value>
2

$$$$
>  <Macromolecule Sequence>
LGCPICGFYCTQKGNLLRHIKL [46L_47G_49P_50I_52G_53F_54Y_55C_67L_, Q9UKT9]

>  <Value>
2.1

$$$$
>  <Macromolecule Sequence>
FDCNICGAGFTQKGNLLRHIKL [46F_47D_49N_50I_52G_53A_54G_55F_67L_, Q9UKT9]

>  <Value>
-0.131

$$$$
>  <Macromolecule Sequence>
LSCPICGFYCTQKGNLLRHIKL [46L_47S_49P_50I_52G_53F_54Y_55C_67L_, Q9UKT9]

>  <Value>
2.93

$$$$
>  <Macromolecule Sequence>
LVCPICGFYCTQKGNLLRHIKL [46L_47V_49P_50I_52G_53F_54Y_55C_67L_, Q9UKT9]

>  <Value>
2.84

$$$$
